The values you see were collected from PubChem BioAssay AID1508600.

# z-score annotations
Test: Components of the Cytosolic LPS Sensing Pathway: Gene Identification via Genome-wide siRNA Screen
Conditions: RAW264.7 macrophages, IL-1a HTRF, actives lie on both sides, screened at 100 nM (by protocol), cells primed 5 h with Pam3CSK4 first
Method: Non-canonical inflammasome activation by cytosolic LPS is a critical component of the host response to Gram-negative bacterial infection, however we lack a comprehensive understanding of the cellular processes that control this pathway. […] Lipofectamine RNAiMAX Transfection Reagent ([…]; Invitrogen) was added in […] serum-free, antibiotic-free media to plate wells using a Thermo Scientific Matrix WellMate and Microplate Stacker. […] The plates were read on an EnVision plate reader (PerkinElmer). […]
In all, about 53,000 sequences went through this assay and about 3,700 (7%) were called active. Only a selection was taken, and actives are over-represented in it overall.
Provide a numeric answer; units are not to be included.

As a guide, the following entries are already answered.
INSERT INTO assay_data (input_sequence, data_value) VALUES
  ('GGAAACUGGAUCAAACCAUTT against Smarcd3', -0.707),
  ('GGAGAUUGAUGAGCAUGCCTT against Rab40b', -2.15),
  ('CCCUUUGUGUGGAUUAUAUTT against Sp9', 2.91),
  ('GGUGCUACUCCAGAUUGACTT against Tbc1d13', 0.63),
  ('GGCCGACAAUUUGUCAGUUTT against Uaca', -1.19),
  ('GGGCUUUAUUCAUCCACUCTT against 1700067P10Rik', 1.52),
  ('GGCCAUGGAGAACAUAUGCTT against Trpm8', -2.09),
  ('GCAUGUGACCUCGUCUUGCTT against Apbb2', -1.04),
  ('GCAAUGUGAGAAUUUUAACTT against Psg26', 2.03),
  ('GGACCUCAUCUACAGAAUGTT against Tssk1', 0.878);

Value of measured z-score for the entry GCGUGAGAUACCAUAUUAUTT against Bank1 : -1.47

Value of measured z-score for the entry GCCCGGUAAAGGUAUCCAUTT against Trp53bp1 : 0.384

====

Assay: Components of the Cytosolic LPS Sensing Pathway: Gene Identification via Genome-wide siRNA Screen
Conditions: RAW264.7 macrophages, IL-1a HTRF, actives lie on both sides, screened at 100 nM (by protocol), cells primed 5 h with Pam3CSK4 first
Screen size: about 53,000 sequences; about 3,700 (7%) were called active.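 Rule for the calls: active = gene knockdowns whose robust z-score for IL-1 alpha signal is at least 2 or at most -2, so actives lie on both sides; inactive = the rest.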 The sample as a whole holds a higher share of actives than the screen did.
Please state which outcome applies, choosing from 1 = active, -1 = inactive

Use these answered entries as a reference point.
INSERT INTO measurements (input_sequence, cat) VALUES
  ('CCCAUGUUUAUGUUGCUGATT against Olfr467', -1),
  ('GGCUGAACUGAUCCUGUACTT against Kcnh3', 1);

Problem: Check the results log: what was the call for GGCUUGAACACAAGAAAGCTT against Golim4 ?
Solution: -1

Problem: Check the results log: what was the call for GGUUUGAGUGGAAAAUUCATT against Csn1s2b ?
Solution: -1

Problem: Check the results log: what was the call for GGAACUGGCCAAUUACUACTT against Rdm1 ?
Solution: -1

Problem: Check the results log: what was the call for GGUUAAAUGUCGUUUAUACTT against Rasa3 ?
Solution: -1

Problem: Check the results log: what was the call for GGAAUCUCGGAGGAAAACUTT against Hyou1 ?
Solution: -1

Problem: Check the results log: what was the call for GGCUCAGAUCUUUGACUACTT against Pnp ?
Solution: -1

Problem: Check the results log: what was the call for GGAGUCAGUACUGUAAAAUTT against Rin2 ?
Solution: -1

Problem: Check the results log: what was the call for GGAGUUUGACUCAAUAUCATT against Napb ?
Solution: -1

Problem: Check the results log: what was the call for CGGACUUGUUUUUUAGUCUTT against Tnrc18 ?
Solution: -1

Problem: Check the results log: what was the call for GGAAGAUGAACAUCAAACATT against Dglucy ?
Solution: -1

Problem: Check the results log: what was the call for GAUUUUCCUGCUCACAAUGTT against Olfr1269 ?
Solution: -1

Problem: Check the results log: what was the call for GCUAAGCGGAAUGCACUCGTT against Cxcl5 ?
Solution: 1

Problem: Check the results log: what was the call for GGCUUUUGUCAAACAGCAUTT against Ins1 ?
Solution: 1

Problem: Check the results log: what was the call for CGGCUCCAGGCAAAUAUGGTT against Ezh1 ?
Solution: -1

Problem: Check the results log: what was the call for GGAACCUAAUUGAAUGGCUTT against Cmbl ?
Solution: -1

Problem: Check the results log: what was the call for GGGCCUUCUGAUUUAAAAGTT against Slc43a3 ?
Solution: -1

Problem: Check the results log: what was the call for GGUAGCACUUUGUAUUUUATT against Spg7 ?
Solution: -1

Problem: Check the results log: what was the call for GGGCUAUCCUUCUGAAUUUTT against Csnk1d ?
Solution: -1

Problem: Check the results log: what was the call for GGAGAAGAAGAUUUUUGGCTT against Gpr108 ?
Solution: -1

Problem: Check the results log: what was the call for GGAUCUUGAAGACCAAAAATT against Kazn ?
Solution: 1

Problem: Check the results log: what was the call for GCAGAUCAUUCCCGUGUUGTT against P2ry14 ?
Solution: -1
